System: NCI-H2126
measurement_description: relative viability (nuclei count vs DMSO), 5 days (fraction); higher = more cells survive
stated_conditions: first compound 2 µM
readout_type: relative viability
// print number alone

CN1CCN(CCOc2cc(OC3CCOCC3)c3c(Nc4c(Cl)ccc5c4OCO5)ncnc3c2)CC1 [Saracatinib] + Cc1nc(Nc2ncc(C(=O)Nc3c(C)cccc3Cl)s2)cc(N2CCN(CCO)CC2)n1 [Dasatinib] (partner 0.075 µM); 0.398
Cc1csc(=NC2CCCCC2)n1/N=C/c1ccc(O)c(O)c1O [MIM1] + O=C(CCCCCCC(=O)Nc1ccccc1)NO [Vorinostat] (partner 1 µM); 0.838

Data request: Field: relative viability (NCI-H2126). Entry: CN1CCN(CCOc2cc(OC3CCOCC3)c3c(Nc4c(Cl)ccc5c4OCO5)ncnc3c2)CC1 [Saracatinib] + NC(=O)Nc1cc(-c2cccc(F)c2)sc1C(=O)N[C@H]1CCCNC1 [AZD7762] (partner 0.2 µM)
Data returned: 0.993

Data request: Lab request: please report relative viability under test system NCI-H2126 for CN1CCN(CCOc2cc(OC3CCOCC3)c3c(Nc4c(Cl)ccc5c4OCO5)ncnc3c2)CC1 [Saracatinib] + Cc1nc(NC(=O)N2CCC[C@H]2C(N)=O)sc1-c1ccnc(C(C)(C)C(F)(F)F)c1 [Alpelisib] (partner 2 µM)
Data returned: 0.622

Data request: Quick check: relative viability on NCI-H2126, item Cc1csc(=NC2CCCCC2)n1/N=C/c1ccc(O)c(O)c1O [MIM1] + Nc1ncn([C@H]2C[C@H](O)[C@@H](CO)O2)c(=O)n1 [Decitabine] (partner 2 µM) ?
Data returned: 0.545
